Cited source for all entries: ChEMBL document CHEMBL3853265

experiment_summary: Toxicity in po dosed dog administered as single dose
Format: organism-based, Canis lupus familiaris
test_context: in vivo
property_name: MTD (mg/kg)

INSERT INTO measurements (smiles_structure, val) VALUES
  ('O=S(=O)(Nc1ccc(C(F)(F)F)nc1)c1ccccc1C(F)(F)F', 100);

---

target_of_assay: Solute carrier family 22 member 12 (Homo sapiens)
Sequence (Q96S37 whole entry, canonical isoform): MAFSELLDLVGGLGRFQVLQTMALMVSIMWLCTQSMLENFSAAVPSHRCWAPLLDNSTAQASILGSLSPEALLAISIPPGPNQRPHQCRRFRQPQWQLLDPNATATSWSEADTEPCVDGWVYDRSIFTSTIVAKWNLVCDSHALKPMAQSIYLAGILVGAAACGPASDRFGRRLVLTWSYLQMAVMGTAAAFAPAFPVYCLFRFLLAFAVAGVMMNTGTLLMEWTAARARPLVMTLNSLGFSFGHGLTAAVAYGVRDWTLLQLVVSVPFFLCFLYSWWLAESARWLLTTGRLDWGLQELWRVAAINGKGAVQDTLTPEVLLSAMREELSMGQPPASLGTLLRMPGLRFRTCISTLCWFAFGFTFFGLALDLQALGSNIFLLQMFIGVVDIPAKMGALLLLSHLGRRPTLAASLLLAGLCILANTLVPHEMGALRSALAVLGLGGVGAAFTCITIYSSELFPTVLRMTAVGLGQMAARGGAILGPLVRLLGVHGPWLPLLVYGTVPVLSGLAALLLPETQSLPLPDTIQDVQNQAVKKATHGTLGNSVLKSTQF
experiment_summary: Inhibition of human C-terminal eGFP-tagged URAT1 long isoform expressed in CHO cells assessed as decrease in [14C]-uric acid uptake preincubated for 15 mins followed by [14C]-uric acid addition and incubated in dark for 3 hrs by scintillation counting method
The reader will find reported IC50 values listed item by item below.
property_name: IC50 (nM)

INSERT INTO assay_data (smiles_structure, target_of_assay, property_name, qualifier_operator, val) VALUES
  ('Cc1ccncc1NS(=O)(=O)c1ccccc1C(F)(F)F', 'Solute carrier family 22 member 12 (Homo sapiens)', 'IC50', '>', 10000),
  ('N#Cc1ccc(NS(=O)(=O)c2ccccc2C(F)(F)F)cc1Cl', 'Solute carrier family 22 member 12 (Homo sapiens)', 'IC50', '=', 18),
  ('O=S(=O)(Nc1cncc(C(F)(F)F)c1)c1ccccc1C(F)(F)F', 'Solute carrier family 22 member 12 (Homo sapiens)', 'IC50', '=', 36),
  ('O=S(=O)(Nc1cnc2ccccc2c1)c1ccccc1C(F)(F)F', 'Solute carrier family 22 member 12 (Homo sapiens)', 'IC50', '=', 7);
